Where do these numbers come from? They come from PubChem BioAssay.

Assay: blockers of RIG-like receptor reporter activation – cell-based, Sendai virus stimulus, luciferase, 10K MLSCN set, TLR/RLR signaling modifier project, primary screen (AID 602276);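 also: firefly luciferase from ISG56 promoter only with Renilla not read in this screen; 0% = Sendai virus plus DMSO and 100% = medium plus DMSO without virus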
Conditions: HEK293 RL24 IRF3 luciferase reporter, at 10 µM, stronger effect = higher value
Consider the following compounds; for each one, report its inhibition.
Respond numerically; units are % and should not be typed.

Query block: Provide one value: measured inhibition of COc1ccccc1OCCCn1cc(C(=O)c2ccco2)c2ccccc21
Result block: -22.2

Query block: Give recorded inhibition. c1cncc(CNC2=NCCCCC2)c1
Result block: 5.89

Query block: Please supply the value of reported inhibition for the item O=C(Cc1ccccc1)OC(COCc1ccccc1)CN1CCOCC1 (stereo not given)
Result block: 2.92

Query block: Note down inhibition recorded for CC(C)CC12CN3CCN(CC(C3)/C1=N/O)C2
Result block: 19.2

Query block: Please give the documented inhibition of C=CCOC(=O)COc1cc(C)cc2oc(=O)c3c(c12)CCC3
Result block: -1.05

----------
Experiment: inhibitors of TNFa-induced NFkB p65 translocation, primary screen, imaging, HUVEC, MLSMR starter and 10KST1 sets (AID 438);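 also: compound added about 3h40 before a 20 min TNFalpha stimulation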
Conditions: HUVEC TNFa-induced p65 nuclear translocation; measured here: nuclei count (cytotoxicity indicator), at 2.08 µM
cell count below 500 gives -1; cell count at or above it gives 1.

Query block: In plain terms: is recorded cell count at least 500 for Cc1cc(OCC(=O)O)c2c3c(c(=O)oc2c1)CCCC3 ?
Result block: -1

Query block: Is cell count for CN1[C@@H]2CC[C@H]1CC(OC(=O)C1C=Nc3ccccc31)C2 (stereo not given in full) at or above 500?
Result block: 1

Query block: Has CCOC(=O)C1=C(C)OC(N)=C(C(=O)OCC)[C@@]12C(=O)N(CC(N)=O)c1ccccc12 a recorded cell count greater than or equal to 500?
Result block: -1

Query block: Form field: cell count at least 500? Entry: NC(=O)CSP(=O)(c1ccccc1)c1ccccc1
Result block: -1

Query block: Answer whether cell count of Cc1[nH]c2c(Cl)cccc2c1CCN is greater than or equal to 500.
Result block: 1

Query block: Check this molecule for cell count at or above 500: CCn1c(C)c(C(=O)O)c2cc(OC)ccc21
Result block: 1

Query block: Textbook exercise: given the entry O=C(c1ccco1)C12CN3CN(CN(C3)C1)C2 , state whether its cell count is greater than or equal to 500.
Result block: -1

Query block: Decide: cell count of O=c1[nH]c(=O)n(Cc2ccccc2)c(O)c1C=NCCN1CCOCC1 >= 500?
Result block: 1

Query block: Determine whether measured cell count meets or exceeds 500 for COc1ccc(OC)c(N2C(=O)NC(=O)C(CCc3ccncc3)(CCc3ccncc3)C2=O)c1
Result block: -1

Query block: Could you tell me if the measured cell count of CCCCNC(=O)Nc1ccc(C(O)(C(=O)OCC)C(F)(F)F)cc1 (stereo not given) reaches 500 or more?
Result block: 1

Query block: Exam item: decide whether the reported cell count for CC(C)OC(=O)c1c(N)n(Cc2ccco2)c2nc3ccccc3nc12 is at least 500.
Result block: -1

Query block: Could you please find out whether O=c1[nH]c2ccccc2c(=O)n1-c1cccc(Cl)c1 has cell count that meets 500 or exceeds it?
Result block: 1

Query block: Identify whether the reported cell count of the following molecule is 500 or greater: CCN(CC)CCN=Cc1c(O)n(CCC2=CCCCC2)c(=O)[nH]c1=O
Result block: 1

Query block: Answer whether cell count of O=C1CC(c2ccccc2)CC(O)=C1C=NCCN1CCN(C(=O)Cc2ccccc2)CC1 (stereo not given) is greater than or equal to 500.
Result block: -1

Query block: Please check the record CCN(CC)CCN=C(C)c1c(O)n(-c2ccccc2OC)c(=O)[nH]c1=O and state if its cell count is at or above 500.
Result block: 1

Query block: Given the entry CC(C)CC12CN3CCN(CC(C3)/C1=N/O)C2 , answer whether its cell count meets or surpasses 500.
Result block: -1

Query block: Record CCN(CC)CCCNC(=O)c1c(O)c2ccccc2n(Cc2ccccc2)c1=O ; criterion: cell count no lower than 500. Met?
Result block: 1

Query block: Reported cell count reaches at least 500 for Cc1cccc(C2=NCC(=O)N(CC(=O)NCc3ccco3)c3sc4c(c32)CCCC4)c1 ?
Result block: -1

Query block: Is reported cell count greater than or equal to 500 here: C=CCOC(=O)C1=C(C)OC(N)=C(C#N)C12C(=O)N(CN1CCOCC1)c1ccccc12 (stereo not given)
Result block: -1
